Target: PDE5A1 (Homo sapiens)
Construct: from tissue; host or cells: human platelets from fresh donor blood (10,000 x g supernatant of sonicated lysate)
Experiment: Inhibition of type 5 phosphodiesterase (PDE5) activity, modified SPA test with human platelet lysate
Assay type: biochemical
Settings: 0.5 μM cGMP, read-out: PDE5A1 inhibitory values [measured as −log IC50 (mol/l)] (converted)
Protocol: Method for Measuring Inhibition of the Type 5 Phosphodiesterase (PDE5) Activity: As a source for human PDE5, platelets are used. For that purpose, 150 ml fresh blood from human donors anticoagulated with citrate [final concentration 0.3% (w/v)] is centrifuged at 200 g for 10 min to obtain the so-called platelet-rich-plasma (PRP) as a supernatant. 1/10 volume of ACD solution (85 mM Na3-citrate, 111 mM D-glucose, 71 mM citric acid, pH 4.4) is added to 9/10 volume of PRP. […]
TEST_READOUT: IC50

If you can, please state the reported IC50 value of CCC(=O)N[C@@H]1CC[C@@H](NC(=O)c2c(C)[nH]c3c(-c4cc(C(F)F)ccc4OCC4CC4)ncnc23)[C@H](F)C1 (relative stereo) [Example P160] .
< 1 nM

If you can, please state the reported IC50 value of CCC(=O)N1CC[C@H](O)[C@@H](NC(=O)c2c(C)[nH]c3c(-c4cc(OC)c(F)cc4OCC4CC4)ncnc23)C1 (relative stereo) [Example E117] .
< 1 nM

If you can, please state the reported IC50 value of CCC(=O)N1CC[C@@H](NC(=O)c2c(C)[nH]c3c(-c4cc(C)c(F)cc4OCC4CC4)ncnc23)[C@H](O)C1 (relative stereo) [Example E129] .
< 1 nM

If you can, please state the reported IC50 value of CCOC(=O)N[C@H]1CC[C@H](NC(=O)c2c(C)[nH]c3c(-c4c(OCC5CC5)ccc5c4OCO5)ncnc23)CC1 [Example E8] .
< 1 nM

If you can, please state the reported IC50 value of CCC(=O)N[C@H]1CC[C@@H](NC(=O)c2c(C)[nH]c3c(-c4cc(CC)ccc4OCC4CC4)ncnc23)CC1 [Example E152] .
< 1 nM

If you can, please state the reported IC50 value of CCC(=O)N1CC[C@@H](NC(=O)c2c(C)[nH]c3c(-c4cc(OC)ccc4OCC4CC4)ncnc23)C1 [Example E76] .
< 1 nM

---

Biological target: PDE4B1 (Homo sapiens, UniProt Q07343)
Construct: made in house; host or cells: SF21 insect cells (baculovirus; pCRBac vector), 1000 x g supernatant of homogenate
Sequence (Q07343 whole entry): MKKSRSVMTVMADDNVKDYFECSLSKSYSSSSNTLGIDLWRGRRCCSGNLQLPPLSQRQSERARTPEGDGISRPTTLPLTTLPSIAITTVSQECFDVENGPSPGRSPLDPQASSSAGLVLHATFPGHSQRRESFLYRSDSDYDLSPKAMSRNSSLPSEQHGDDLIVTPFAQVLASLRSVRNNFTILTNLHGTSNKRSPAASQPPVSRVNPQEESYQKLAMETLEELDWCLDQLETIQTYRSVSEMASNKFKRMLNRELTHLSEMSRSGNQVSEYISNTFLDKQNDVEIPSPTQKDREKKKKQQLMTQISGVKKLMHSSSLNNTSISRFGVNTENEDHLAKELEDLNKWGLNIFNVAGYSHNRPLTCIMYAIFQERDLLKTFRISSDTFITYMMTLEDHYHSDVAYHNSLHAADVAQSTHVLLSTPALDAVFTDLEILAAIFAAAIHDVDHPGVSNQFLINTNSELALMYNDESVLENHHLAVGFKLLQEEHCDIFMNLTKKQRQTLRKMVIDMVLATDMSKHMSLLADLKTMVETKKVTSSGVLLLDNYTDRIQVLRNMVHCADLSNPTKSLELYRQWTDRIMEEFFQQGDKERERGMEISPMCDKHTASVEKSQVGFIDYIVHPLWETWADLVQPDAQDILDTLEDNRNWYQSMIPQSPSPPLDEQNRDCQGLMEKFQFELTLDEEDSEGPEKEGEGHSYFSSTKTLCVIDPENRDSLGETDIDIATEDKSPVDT
Assay: Inhibition of type 4 phosphodiesterase (PDE4) activity, modified SPA test with recombinant PDE4B1 expressed in SF21 insect cells
Type: biochemical
Details: recombinant PDE4B1, 0.5 μM cAMP, read-out: PDE4B1 inhibitory values [measured as −log IC50 (mol/l)] (converted)
Would you kindly list IC50 for each of these compounds?

If you can, please state the reported IC50 value of Cc1[nH]c2c(-c3cc(F)ccc3OCC3CC3)ncnc2c1C(=O)NC1CCN(C(=O)[C@H](C)O)CC1 [Example F24] .
100 to 1000 nM

If you can, please state the reported IC50 value of CCc1ccc(OCC2CC2)c(-c2ncnc3c(C(=O)N[C@H]4CC[C@@H](NC(=O)COC)CC4)c(C)[nH]c23)c1 [Example E153] .
100 to 1000 nM

If you can, please state the reported IC50 value of Cc1[nH]c2c(-c3cc(C(F)(F)F)ccc3OCC3CC3)ncnc2c1C(=O)N[C@H]1CC[C@@H](NC(=O)[C@H](C)O)CC1 [Example F62] .
< 100 nM

If you can, please state the reported IC50 value of CCC(=O)N[C@H]1CC[C@H](NC(=O)c2c(C)[nH]c3c(-c4cc(C(F)F)ccc4OCC4CC4)ncnc23)CC1 [Example P7] .
< 100 nM

If you can, please state the reported IC50 value of Cc1[nH]c2c(-c3cc(C(C)C)ccc3OCC3CC3)ncnc2c1C(=O)NC1CCN(C(=O)[C@H](C)O)CC1 [Example F99] .
100 to 1000 nM

If you can, please state the reported IC50 value of CC(=O)N1CCC(NC(=O)c2c(C)[nH]c3c(-c4cc(C)ccc4OCC4CC4)ncnc23)CC1 [Example E81] .
< 100 nM

If you can, please state the reported IC50 value of COCC(=O)N[C@H]1CC[C@H](NC(=O)c2c(C)[nH]c3c(-c4cc(C(F)(F)F)ccc4OCC4CC4)ncnc23)CC1 [Example E95] .
< 100 nM

If you can, please state the reported IC50 value of CCc1ccc(OCC2CC2)c(-c2ncnc3c(C(=O)N[C@H]4CC[C@H](NC(=O)COC)CC4)c(C)[nH]c23)c1 [Example E150] .
< 100 nM

If you can, please state the reported IC50 value of CCC(=O)N[C@H]1CC[C@H](NC(=O)c2c(C)[nH]c3c(-c4cc(CC)ccc4OCC4CC4)ncnc23)CC1 [Example E149] .
< 100 nM

If you can, please state the reported IC50 value of COCC(=O)N[C@@H]1CC[C@@H](NC(=O)c2c(C)[nH]c3c(-c4cc(C(F)F)ccc4OCC4CC4)ncnc23)[C@H](F)C1 (relative stereo) [Example P161] .
< 100 nM

If you can, please state the reported IC50 value of Cc1[nH]c2c(-c3cc(C(F)(F)F)ccc3OCC3CC3)ncnc2c1C(=O)NC1CCN(C(=O)[C@H](C)O)CC1 [Example F58] .
100 to 1000 nM

If you can, please state the reported IC50 value of COCC(=O)N[C@H]1CC[C@H](NC(=O)c2c(C)[nH]c3c(-c4cc(C(F)F)ccc4OCC4CC4)ncnc23)C[C@@H]1C (relative stereo) [Example P191] .
< 100 nM

If you can, please state the reported IC50 value of CCC(=O)N[C@H]1CC[C@H](NC(=O)c2c(C)[nH]c3c(-c4cc(C(F)F)ccc4OCC4CC4)ncnc23)C[C@@H]1F (relative stereo) [Example P210] .
< 100 nM
